# Test system: P. falciparum 3D7 (Pf3D7, chloroquine-sensitive strain)
# method: Pf3D7 asexual blood-stage growth inhibition, SYBR Green fluorescence assay
# Assay type: cell-based, Plasmodium falciparum
# test.settings: Plasmodium falciparum, 3D7, 96 h, read-out: Pf3D7 EC50
# Protocol: a. Pf3D7: 100 μL of complete media (Sigma-Aldrich’s RPMI 1640, 25 mM HEPES, 10 μg/mL gentamicin, 0.5 mM hypoxanthine supplemented with NaHCO3 and 0.5% Albumax II, 37 °C) containing compounds (50–0.3 µM) or 100 µM chloroquine were added to 96 well plates in triplicates. […] The plates were incubated in the dark at room temperature for 1 h and read at λex 485 nm and λem 530 nm. […]
readout.type: pEC50
On this scale, pEC50 is minus log10 of a concentration expressed in M (mol/L).

Assign pEC50 to the following record: CCN(CC)CCCC(C)Nc1ccnc2cc(Cl)ccc12 (centres unmarked) [Chloroquine, reference compound] 8.40

Assign pEC50 to the following record: CC1(C)[C@H]2CC=C(CCOC(=O)c3cc4ccccc4[nH]3)[C@@H]1C2 5.33

---

Record form. Attribute: CC50. Fill in for each entry.
# Test system: Human hepatocarcinoma cell line (Hep G2)
# method: Cytotoxicity assay (MTT)
# Format: cell-based
# test.settings: 72 h

Assign CC50 to the following record: Cc1c(Cl)ccc2c(OC(=O)CC3=CC[C@@H]4C[C@H]3C4(C)C)ccnc12 > 160 µM

Assign CC50 to the following record: COc1ccc(NC(=O)CC2=CCC3CC2C3(C)C)c2ncccc12 (single isomer, unassigned) [Compound 1] 70.8 µM

Assign CC50 to the following record: Cc1cc(OC(=O)CC2=CC[C@@H]3C[C@H]2C3(C)C)c2ccc(Cl)c(C)c2n1 > 160 µM

Assign CC50 to the following record: CC1(C)[C@@H]2CC=C(CC(=O)Oc3ccnc4cc(Cl)ccc34)[C@H]1C2 > 160 µM

---

# Tested on: PfK1
# method: PfK1 erythrocytic stage growth inhibition, [3H]-hypoxanthine incorporation assay
# Type: cell-based, Plasmodium falciparum
# test.settings: Plasmodium falciparum, 72 h; erythrocytic stages, 48 h + 24 h with 3H-hypoxanthine
readout.type: pEC50
On this scale, pEC50 is minus log10 of a concentration expressed in M (mol/L).

Assign pEC50 to the following record: OC(c1cc(C(F)(F)F)nc2c(C(F)(F)F)cccc12)C1CCCCN1 (centres unmarked) [Mefloquine, reference compound] 6.93

Assign pEC50 to the following record: C[C@@H]1CC[C@H]2[C@@H](C)C(=O)O[C@@H]3O[C@@]4(C)CC[C@@H]1[C@]32OO4 [Artemisinin, reference compound] 7.96

---

# method: Cytotoxicity assay (MTT)
# Format: cell-based, Human
# test.settings: human, Hep G2 cells (human hepatocarcinoma cell line)
# Experimental: Human hepatocarcinoma cell line (Hep G2, ATCC CRL-11997TM) was used for cytotoxicity studies as previously described. The cells were grown in complete medium (DMEM:F12 containing L-glutamine and sodium bicarbonate, 10% FBS, 1% penicillin/streptomycin, Thermo Fisher Scientific) at 37 °C in 5% CO2 environment. […] The plates were read at 570 nm. […] Percent cell viabilities were expressed as a percentage of the mean viability of DMSO-treated (1%) cells.
readout.type: CC50 at 72 h

Assign CC50 at 72 h to the following record: CC1(C)[C@H]2CC=C(CCOC(=O)c3cc4ccccc4[nH]3)[C@@H]1C2 [Compound 15] > 40 µM

---

Record form. Attribute: EC50. Fill in for each entry.
# Tested on: PfNF54
# method: PfNF54 erythrocytic stage growth inhibition, [3H]-hypoxanthine incorporation assay
# Type: cell-based, Plasmodium falciparum
# test.settings: erythrocytic stages, 48 h + 24 h with 3H-hypoxanthine
A number alone suffices; assume µM.

Assign EC50 to the following record: CC1(C)[C@@H]2CC=C(CC(=O)Oc3ccnc4cc(Cl)ccc34)[C@H]1C2 [Compound 8] 23.3

Assign EC50 to the following record: CC1(C)[C@@H]2CC=C(CC(=O)Nc3ccnc4ccccc34)[C@H]1C2 [Compound 5] 23.4

Assign EC50 to the following record: CC1(C)[C@@H]2CC=C(CC(=O)Nc3ccnc4cc(Cl)ccc34)[C@H]1C2 [Compound 6] 21.4

---

Record form. Attribute: EC50. Fill in for each entry.
# Tested on: PfNF54
# method: PfNF54 erythrocytic stage growth inhibition, [3H]-hypoxanthine incorporation assay
# Type: cell-based, Plasmodium falciparum
# test.settings: Plasmodium falciparum, 72 h; erythrocytic stages, 48 h + 24 h with 3H-hypoxanthine
Answers without a unit are incomplete; give the number and then its unit.

Assign EC50 to the following record: C[C@@H]1CC[C@H]2[C@@H](C)C(=O)O[C@@H]3O[C@@]4(C)CC[C@@H]1[C@]32OO4 [Artemisinin, reference compound] 17 nM

Assign EC50 to the following record: OC(c1cc(C(F)(F)F)nc2c(C(F)(F)F)cccc12)C1CCCCN1 (centres unmarked) [Mefloquine, reference compound] 3 nM

---

# Test system: Human hepatocarcinoma cell line (Hep G2)
# method: Cytotoxicity assay (MTT)
# Format: cell-based
# test.settings: 72 h
Record form. Attribute: CC50. Fill in for each entry.

Answer briefly: CC50 recorded on Human hepatocarcinoma cell line (Hep G2) for CC1(C)[C@@H]2CC=C(CC(=O)Nc3ccnc4ccccc34)[C@H]1C2 [Compound 5] 3.98 µM

Answer briefly: CC50 recorded on Human hepatocarcinoma cell line (Hep G2) for CC1(C)[C@@H]2CC=C(CC(=O)Oc3ccnc4ccccc34)[C@H]1C2 [Compound 7] > 160 µM

Answer briefly: CC50 recorded on Human hepatocarcinoma cell line (Hep G2) for COc1ccc(NC(=O)CC2=CCC3CC2C3(C)C)c2ncccc12 (single isomer, unassigned) [Compound 2] > 160 µM

Answer briefly: CC50 recorded on Human hepatocarcinoma cell line (Hep G2) for CC1(C)[C@@H]2CC=C(CC(=O)Oc3cc(C(F)(F)F)nc4c(C(F)(F)F)cccc34)[C@H]1C2 [Compound 12] 21.8 µM

Answer briefly: CC50 recorded on Human hepatocarcinoma cell line (Hep G2) for CC1(C)C2CC=C(CC(=O)Nc3cccc4cccnc34)C1C2 (single isomer, unassigned) [Compound 4] > 160 µM

Answer briefly: CC50 recorded on Human hepatocarcinoma cell line (Hep G2) for CC1(C)[C@@H]2CC=C(CC(=O)Oc3cc(C(F)(F)F)nc4ccc(F)cc34)[C@H]1C2 [Compound 10] 48.5 µM

Answer briefly: CC50 recorded on Human hepatocarcinoma cell line (Hep G2) for CC1(C)[C@@H]2CC=C(CC(=O)Nc3ccnc4cc(Cl)ccc34)[C@H]1C2 [Compound 6] 14.3 µM

Answer briefly: CC50 recorded on Human hepatocarcinoma cell line (Hep G2) for CC1(C)C2CC=C(CC(=O)Nc3cccc4cccnc34)C1C2 (single isomer, unassigned) [Compound 3] > 160 µM

---

Record form. Attribute: pEC50. Fill in for each entry.
# Test system: PfNF54
# method: PfNF54 erythrocytic stage growth inhibition, [3H]-hypoxanthine incorporation assay
# Assay type: cell-based, Plasmodium falciparum
# test.settings: erythrocytic stages, 48 h + 24 h with 3H-hypoxanthine
pEC50: −log10 of the molar value.

Assign pEC50 to the following record: CC1(C)C2CC=C(CC(=O)Nc3cccc4cccnc34)C1C2 (single isomer, unassigned) [Compound 3] < 4.30

Assign pEC50 to the following record: CC1(C)C2CC=C(CC(=O)Nc3cccc4cccnc34)C1C2 (single isomer, unassigned) [Compound 4] < 4.30

Assign pEC50 to the following record: CC1(C)[C@@H]2CC=C(CC(=O)Oc3ccnc4ccccc34)[C@H]1C2 < 4.30
